- Test system: biotinyl-Ile-oxazolone
- experimental.protocol: self-aminoacylation, catalytic enhancement (BIO) (fold over background); higher = more active; k-Seq, kA / k0A0; sequences stand for … in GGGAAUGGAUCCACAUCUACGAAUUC…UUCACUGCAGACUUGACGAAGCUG
Variants at the floor of the assay were thinned out.
Threshold rule: self-aminoacylation greater than or equal to 3 is TRUE; below that, FALSE.

CUACUUCAAAUACUCGGUCUG [Fam1A.1 aminoacylation ribozyme variant]
FALSE
UUUCACCUAAGUCAUCGGGUG [Fam2.2 aminoacylation ribozyme variant]
TRUE
CUACUUCCAACACUCGGUCUG [Fam1A.1 aminoacylation ribozyme variant]
FALSE
CCAAACUUCAAGAAAUCGGUC [Fam1B.1 aminoacylation ribozyme variant]
FALSE
CUACUUCAAAUAAUCGGGCUG [Fam1A.1 aminoacylation ribozyme variant]
FALSE
CGACUCUUCAAGCAAUCGGUC [Fam1B.1 aminoacylation ribozyme variant]
FALSE
AUUACCUUGGUCAUCGAGUGU [Fam2.1 aminoacylation ribozyme variant]
FALSE
GCACACUUCAAGCGAUCGGUC [Fam1B.1 aminoacylation ribozyme variant]
FALSE
ACUCACCUACGUCAUCGGGUG [Fam2.2 aminoacylation ribozyme variant]
TRUE
AUUCCCCUAGGUCAUGGGGUG [Fam2.2 aminoacylation ribozyme variant]
TRUE
AUUACCCUGGUCAUUGAGGGA [Fam2.1 aminoacylation ribozyme variant]
FALSE
CAACUUCAAACAAUCGGUCUU [Fam1A.1 aminoacylation ribozyme variant]
FALSE
AUUACCCUGUUCAUUGAGUGA [Fam2.1 aminoacylation ribozyme variant]
TRUE
CCACACUUCAAGCAAACGGUU [Fam1B.1 aminoacylation ribozyme variant]
FALSE
AUUCACCGAAGUCAUCGGGUG [Fam2.2 aminoacylation ribozyme variant]
TRUE
CCACACUUCAAGCCAUUGGUC [Fam1B.1 aminoacylation ribozyme variant]
FALSE
AUUAACCUAUGUCAUCGGGUG [Fam2.2 aminoacylation ribozyme variant]
TRUE
AAGCUUGCUAAUGGUCGCAAG [Fam3.1 aminoacylation ribozyme variant]
FALSE
AUUCUCCUAGGUAAUCGGGUG [Fam2.2 aminoacylation ribozyme variant]
FALSE
AUACUUCAAACAAUCGGUCAG [Fam1A.1 aminoacylation ribozyme variant]
FALSE
AAGCUUGCUACUAGUCGCAAG [Fam3.1 aminoacylation ribozyme variant]
FALSE
CCCCACUUCAGGCAAUCGGUC [Fam1B.1 aminoacylation ribozyme variant]
FALSE
AUUGCCCUCGUCAUCGAGUGA [Fam2.1 aminoacylation ribozyme variant]
FALSE
UAGUUUGCUAAUAGUGGCAAG [Fam3.1 aminoacylation ribozyme variant]
FALSE
CUACUUCAAACAAUCGGUGAG [Fam1A.1 aminoacylation ribozyme variant]
FALSE
AUUCACCUAGGUCAUCGAGUU [Fam2.2 aminoacylation ribozyme variant]
FALSE
CUGCUUCAAACAAUAGGUCUG [Fam1A.1 aminoacylation ribozyme variant]
FALSE
AUUUCCCUGGUCUUCGAGUGA [Fam2.1 aminoacylation ribozyme variant]
TRUE
AAGUUUGCUAAUAGGCGCUAG [Fam3.1 aminoacylation ribozyme variant]
FALSE
CCAUACUUCAAGGAAUCGGUC [Fam1B.1 aminoacylation ribozyme variant]
FALSE
AUUACCCUGGUCAUCGCGGGA [Fam2.1 aminoacylation ribozyme variant]
TRUE
CUACUUCAAACAAUCAGUCUC [Fam1A.1 aminoacylation ribozyme variant]
FALSE
AGUCCCCUAGGUCAUCGGGUG [Fam2.2 aminoacylation ribozyme variant]
TRUE
AUGACCCUGGUCGUCGAGUGA [Fam2.1 aminoacylation ribozyme variant]
FALSE

// data source = the supplement of paper PMC9233669
